Test system: P. falciparum stage V gametocytes
Set-up: BacTiter-Glo ATP luminescence viability of purified stage V gametocytes in 384-well plates, per cent inhibition versus DMSO
experimental context: 48 h, 5 µM; inhibitor
Hit rate of the full screen: of about 13,000 compounds, about 3,200 (25%) showed an effect of 50% or more. This is one part of the list.
recorded endpoint: % Inhibition (%)
Unit % implied. Number only.

# annotated cases, reported % Inhibition shown
* c1cc2nc(CCCCc3nc4ccc(C5=N[C@H]6CCCC[C@H]6N5)cc4[nH]3)[nH]c2cc1C1=N[C@H]2CCCC[C@H]2N1 | 16.03
* c1cc2nc(CCCCCc3nc4ccc(C5=N[C@@H]6CCCC[C@@H]6N5)cc4[nH]3)[nH]c2cc1C1=N[C@@H]2CCCC[C@@H]2N1 | -19.86
* c1cc(C2=NC3CCCCC3N2)ccc1OCCCCCOc1ccc(C2=NC3CCCCC3N2)cc1 (stereo not shown) | 132.6

From here, focus on the item given below.
// query Param readout = % Inhibition; param system = P. falciparum stage V gametocytes; param query = `NC1CCN(c2nc(NCCc3ccc(O)cc3)nc(NCc3ccccc3-c3ccc(C(F)(F)F)cc3)n2)CC1` ; response: value
// result 32.82

====

System: P. falciparum stage V gametocytes
Parameters: BacTiter-Glo ATP luminescence viability of purified stage V gametocytes in 384-well plates, per cent inhibition versus DMSO
experimental context: 48 h, 5 µM; inhibitor
Hit rate of the full screen: of about 13,000 compounds, about 3,200 (25%) showed an effect of 50% or more. Some of the results follow.
recorded endpoint: % Inhibition (%)
Unit % implied. Number only.

# annotated cases, reported % Inhibition shown
* O=C(Nc1cccc(-c2ccc(CN3CCCC3)cc2)c1)c1ccc(F)cc1 | -0.2818
* Cc1nnc2c(N(C(=O)NCCc3ccccc3)C(=O)NCCc3ccccc3)cc3cc(Cl)ccc3n12 | 21.17
* COc1ccc(CNC(=O)Nc2cc3cc(-c4ccc(CN5CCCC5)cc4)ccc3n3c(C)nnc23)cc1 | 98.19

From here, focus on the item given below.
// query What measured % Inhibition goes with `COc1ccc2[nH]c(C(=O)Nc3cccc(-c4ccc(CN(C)C)cc4)c3)cc2c1` ?
// result -4.108

====

Tested on: P. falciparum stage V gametocytes
Set-up: BacTiter-Glo ATP luminescence viability of purified stage V gametocytes in 384-well plates, per cent inhibition versus DMSO
experimental context: 48 h, 5 µM; inhibitor
In all, about 13,000 compounds went through this assay and about 3,200 (25%) showed an effect of 50% or more. This is one part of the list.
Decision: % Inhibition >= 10% yields class 1, all other cases yield class 0.

• COc1ccc(-c2cnc3ccc(NCCCO)nn23)cc1OC = class 1
• COc1cc(-c2ccccc2)ccc1C(=O)Nc1ccc2c(c1)N(C)CCC2 = class 0
• Nc1ncnc2nc(-c3ccc(F)cc3)cc(-c3ccc(NC(=O)c4ccccc4)cc3)c12 = class 0
• CSc1sc(NC(=O)Nc2cccc(C(F)(F)F)c2)cc1C#N = class 0
• COc1cc(O)c2c(=O)c(OC)c(-c3cccc(Cl)c3OC3O[C@H](CO)[C@@H](O)[C@H](O)[C@H]3O)oc2c1OC (some centres unmarked) = class 0

// query Hi, just wondering whether `Nc1ncc(-c2cccc(CCN3CCOCC3)c2)cc1-c1nc2ccc(Br)cc2[nH]1` shows % Inhibition of 10% or higher.
// result class 1

// query Same read-out for CC1CN(c2ccc(C(=O)NCC3CC3)cc2NC(=O)OCc2ccccc2)CC(C)O1 (centres unmarked) ?
// result class 1

// query Same read-out for `CCc1ccc(C(=O)Nc2cccc(CN3CCCN(Cc4ccc(O)cc4)CC3)c2)cc1` ?
// result class 1
